- System: Myzus persicae
- protocolDetails: whole plant or invertebrate
- conditionParameters: in Brassica rapa, 72 h, read-out: grading of mortality, MP
Reported mortality at 500 ppm values for the following molecules.

molecule: C#CCO/N=C/c1cccn1/C(=C\OC)C(=O)OC [Compound 7 of Table I]
mortality at 500 ppm: < 50%
--
molecule: C=CCO/N=C/c1cccn1/C(=C\OC)C(=O)OC [Compound 3 of Table I]
mortality at 500 ppm: < 50%
--
molecule: CO/C=C(/C(=O)OC)n1cccc1/C=C/C(=O)OC
mortality at 500 ppm: < 50%
--
molecule: CO/C=C(/C(=O)OC)n1cccc1/C=N\OC [Compound 2 of Table I]
mortality at 500 ppm: 80 to 100%

====

- System: Phytophthora infestans
- Format: in vivo
- conditionParameters: 100 ppm foliar spray plus root drench ca. 40 ppm a.i./dry soil, one or two days before inoculation
measure: disease control grading, PH[…] (TOMATOES)

sampleSmiles: CO/C=C(/C(=O)OC)n1cccc1/C=C/C(=O)OC
observedResult: 4

====

Reported disease control grading, CERCOSPCRA ARACHIDICOLA (Peanut) values for the following compounds.
- Test system: Cercospora arachidicola
- protocolDetails: foliar fungal disease control on plants, Cercospora arachidicola on peanut
- Format: in vivo
- conditionParameters: 100 ppm foliar spray plus root drench ca. 40 ppm a.i./dry soil, one or two days before inoculation
measure: disease control grading, CERCOSPCRA ARACHIDICOLA (Peanut)

sampleSmiles: C=CCO/N=C/c1cccn1/C(=C\OC)C(=O)OC
observedResult: 4
--
sampleSmiles: CO/C=C(/C(=O)OC)n1cccc1/C=N\OC
observedResult: 4

====

- System: Phytophthora infestans
- Type: in vivo
- conditionParameters: 100 ppm foliar spray plus root drench ca. 40 ppm a.i./dry soil, one or two days before inoculation
measure: disease control grading, PH[…] (TOMATOES)

sampleSmiles: C=CCO/N=C\c1cccn1/C(=C\OC)C(=O)OC
observedResult: 4

sampleSmiles: CCOC(=O)/C=C/c1cccn1/C(=C\OC)C(=O)OC
observedResult: 4

====

- System: Cercospora arachidicola
- protocolDetails: foliar fungal disease control on plants, Cercospora arachidicola on peanut
- Assay type: in vivo
- conditionParameters: 100 ppm foliar spray plus root drench ca. 40 ppm a.i./dry soil, one or two days before inoculation
measure: disease control grading, CERCOSPCRA ARACHIDICOLA (Peanut)

sampleSmiles: CO/C=C(/C(=O)OC)n1cccc1/C=C/C(=O)OC
observedResult: 2 (6-25% of disease on untreated plants)
